Data provenance: ChEMBL document CHEMBL4038265

# protocol_text: Selectivity index, ratio of IC50 for rat L6 cells to IC50 for Trypanosoma cruzi Tulahuen C4
# Type: toxicity
# measurement_setup: read-out: Ratio IC50
Here the recorded selectivity ratio is given for each entry.

Solved cases below.
| compound | measured_metric | endpoint_result |
| --- | --- | --- |
| C=C1C(=O)O[C@H]2/C=C(/C)[C@@H](O)C[C@@H]3O[C@]3(C)C[C@H](OC(=O)/C(C)=C/C)[C@@H]12 | selectivity ratio | 0.7 |
| C=C1C(=O)O[C@H]2[C@H]1[C@@H](OC(=O)/C(C)=C\C)CC(=C)[C@@H]1C=C[C@@](C)(O)[C@H]21 | selectivity ratio | 0.6 |
| C=C1C(=O)O[C@@H]2/C=C(/C)[C@@H]3C[C@H](O)[C@@](CO)(C[C@H](OC(=O)/C(C)=C\C)[C@@H]12)O3 | selectivity ratio | 0.1 |
| C=C1C(=O)O[C@H]2/C=C(/C)[C@@H](O)C[C@H](O)C(=C)C[C@H](OC(=O)/C(C)=C/C)[C@@H]12 | selectivity ratio | 0.2 |
| C=C1C(=O)O[C@H]2/C=C(/C)[C@@H](O)C/C=C(\C)C[C@H](OC(=O)/C(C)=C\C)[C@@H]12 | selectivity ratio | 0.4 |
| C=C(C)C(=O)O[C@H]1C/C(C)=C/C[C@H](O)/C(C)=C\[C@@H]2OC(=O)C(=C)[C@@H]21 | selectivity ratio | 6.1 |
| C=C1C(=O)O[C@H]2/C=C(/C)[C@@H](O)C[C@@H](O)/C(C)=C\[C@H](OC(=O)/C(C)=C\C)[C@@H]12 | selectivity ratio | 0.2 |
| C=C(C[C@H](OC(=O)/C(C)=C\C)[C@@H]1C(=C)C(=O)O[C@H]1/C=C(\C)C=O)C(C)=O | selectivity ratio | 0.3 |

Attention now shifts to the item below.
Identify selectivity ratio associated with the compound "C=C1C(=O)O[C@H]2/C=C(/C)[C@H](O)C[C@H](O)C(=C)C[C@H](OC(=O)/C(C)=C\C)[C@@H]12"
0.2

====

Listed here are compounds together with their documented selectivity ratio.
# protocol_text: Selectivity index, ratio of IC50 for rat L6 cells to IC50 for Trypanosoma cruzi Tulahuen C4
# Type: toxicity
# measurement_setup: read-out: Ratio IC50
Just the number.

Answered cases to consult:
| compound | selectivity ratio |
| --- | --- |
| C=C1C(=O)O[C@H]2/C=C(/C)[C@@H](O)C[C@H](O)C(=C)C[C@H](OC(=O)/C(C)=C\C)[C@@H]12 | 0.2 |
| C=C1C(=O)O[C@H]2/C=C(/C)[C@@H](O)C/C=C(\C=O)C[C@H](OC(=O)/C(C)=C\C)[C@@H]12 | 0.2 |
| C=C1C(=O)O[C@@H](/C=C(\C)C=O)[C@@H]1[C@H](/C=C(/C)C(C)=O)OC(=O)/C(C)=C\C | 0.5 |

Next, consider the following compound.
Return value of selectivity ratio for input "C=C1C[C@H](OC(=O)/C(C)=C\C)[C@H]2C(=C)C(=O)O[C@H]2/C=C(/C)[C@@H](O)CC1=O" , no commentary.
0.5

====

# protocol_text: Selectivity index, ratio of IC50 for rat L6 cells to IC50 for erythrocytic stage of Plasmodium falciparum NF54
# Format: toxicity
# measurement_setup: read-out: Ratio IC50
In this section, each of the molecules is paired with its reported selectivity ratio.
Hey, just send me the number, nothing else.

Here are 5 molecules together with their reported answers.
| compound | selectivity ratio |
| --- | --- |
| C=C1C(=O)O[C@H]2/C=C(/C)[C@@H](O)C/C=C(\C=O)C[C@H](OC(=O)/C(C)=C\C)[C@@H]12 | 0.9 |
| C=C1C(=O)O[C@H]2/C=C(/C)[C@@H](O)C[C@H](O)C(=C)C[C@H](OC(=O)/C(C)=C/C)[C@@H]12 | 0.8 |
| C=C1C(=O)O[C@@H](/C=C(\C)C=O)[C@@H]1[C@H](/C=C(/C)C(C)=O)OC(=O)/C(C)=C\C | 2.3 |
| C=C1C(=O)O[C@@H]2/C=C(/C)[C@@H]3C[C@H](O)[C@@](CO)(C[C@H](OC(=O)/C(C)=C\C)[C@@H]12)O3 | 1.1 |
| C=C1C(=O)O[C@H]2/C=C(/C)[C@@H](O)C[C@H](O)C(=C)C[C@H](OC(=O)/C(C)=C\C)[C@@H]12 | 0.6 |

Determine its reported selectivity ratio: "C=C1C[C@H](OC(=O)/C(C)=C\C)[C@H]2C(=C)C(=O)O[C@H]2/C=C(/C)[C@@H](O)CC1=O"
0.8

Output measured selectivity ratio for this item: "C=C1C(=O)O[C@H]2/C=C(/C)[C@H](O)C[C@H](O)C(=C)C[C@H](OC(=O)/C(C)=C\C)[C@@H]12"
0.9

====

Measured selectivity ratio values are reported for all entries that follow.
# protocol_text: Selectivity index, ratio of IC50 for rat L6 cells to IC50 for bloodstream form of Trypanosoma brucei rhodesiense STIB900
# Format: toxicity
# measurement_setup: read-out: Ratio IC50
Lab note: record just the number, no unit beside it.

For orientation, consider the following solved cases.
| compound | selectivity ratio |
| --- | --- |
| C=C(C[C@H](OC(=O)/C(C)=C\C)[C@@H]1C(=C)C(=O)O[C@H]1/C=C(\C)C=O)C(C)=O | 4.3 |
| C=C1C(=O)O[C@H]2[C@H]1[C@@H](OC(=O)/C(C)=C\C)CC(=C)[C@@H]1C=C[C@@](C)(O)[C@H]21 | 4.4 |
| C=C1C(=O)O[C@H]2/C=C(/C)[C@@H](O)C[C@H](O)C(=C)C[C@H](OC(=O)/C(C)=C\C)[C@@H]12 | 8.3 |
| C=C1C(=O)O[C@H]2/C=C(/C)[C@H](O)C[C@H](O)C(=C)C[C@H](OC(=O)/C(C)=C\C)[C@@H]12 | 8.3 |
| C=C1C(=O)O[C@H]2/C=C(/C)[C@@H](O)C/C=C(\C)C[C@H](OC(=O)/C(C)=C\C)[C@@H]12 | 2.4 |

Recall and state the measured selectivity ratio for "C=C1C[C@H](OC(=O)/C(C)=C\C)[C@H]2C(=C)C(=O)O[C@H]2/C=C(/C)[C@@H](O)CC1=O" .
3.9

For the compound "C=C1C(=O)O[C@@H]2/C=C(/C)[C@@H]3C[C@H](O)[C@@](CO)(C[C@H](OC(=O)/C(C)=C\C)[C@@H]12)O3" , give its measured selectivity ratio value.
63.1

====

# protocol_text: Selectivity index, ratio of IC50 for rat L6 cells to IC50 for amastigote form of Leishmania donovani MHOM/ET/67/L82
# Assay type: toxicity
# measurement_setup: read-out: Ratio IC50
// reported selectivity ratio for each item listed
Just the number.

Please report selectivity ratio for the following molecule: "C=C1C[C@H](OC(=O)/C(C)=C\C)[C@H]2C(=C)C(=O)O[C@H]2/C=C(/C)[C@@H](O)CC1=O"
3.1

Answer with the recorded selectivity ratio for the molecule listed here: "C=C1C(=O)O[C@H]2/C=C(/C)[C@@H](O)C/C=C(\C=O)C[C@H](OC(=O)/C(C)=C\C)[C@@H]12"
1.1

Return value of selectivity ratio for input "C=C1C(=O)O[C@@H]2/C=C(/C)[C@@H]3C[C@H](O)[C@@](CO)(C[C@H](OC(=O)/C(C)=C\C)[C@@H]12)O3" , no commentary.
0.5

State its selectivity ratio: "C=C1C(=O)O[C@H]2/C=C(/C)[C@@H](O)C[C@H](O)C(=C)C[C@H](OC(=O)/C(C)=C\C)[C@@H]12"
0.4

====

# Test system: Trypanosoma brucei rhodesiense
# protocol_text: Antiprotozoal activity against bloodstream form of Trypanosoma brucei rhodesiense STIB900 after 72 hrs by Alamar Blue assay
# Assay type: functional
# measurement_setup: STIB900, 72 h
The entries below are paired with their reported log10 of IC50.
Use the decimal logarithm of IC50 (nM).

Solved cases below.
| compound | assayed_system | log10 of IC50 |
| --- | --- | --- |
| C=C1C[C@H](OC(=O)/C(C)=C\C)[C@H]2C(=C)C(=O)O[C@H]2/C=C(/C)[C@@H](O)CC1=O | Trypanosoma brucei rhodesiense | 2.60 |
| C=C1C(=O)O[C@H]2/C=C(/C)[C@@H](O)C[C@@H](O)/C(C)=C\[C@H](OC(=O)/C(C)=C\C)[C@@H]12 | Trypanosoma brucei rhodesiense | 3.15 |
| C=C1C(=O)O[C@H]2/C=C(/C)[C@@H](O)C[C@@H]3O[C@]3(C)C[C@H](OC(=O)/C(C)=C/C)[C@@H]12 | Trypanosoma brucei rhodesiense | 3.08 |
| C=C(C[C@H](OC(=O)/C(C)=C\C)[C@@H]1C(=C)C(=O)O[C@H]1/C=C(\C)C=O)C(C)=O | Trypanosoma brucei rhodesiense | 2.62 |

Supply recorded log10 of IC50 for "C=C1C(=O)O[C@@H]2/C=C(/C)[C@@H]3C[C@H](O)[C@@](CO)(C[C@H](OC(=O)/C(C)=C\C)[C@@H]12)O3" here.
1.90

Tell me its log10 of IC50 given "C=C1C(=O)O[C@H]2/C=C(/C)[C@@H](O)C[C@H](O)C(=C)C[C@H](OC(=O)/C(C)=C\C)[C@@H]12" as the entry.
2.79

Let me know recorded log10 of IC50 for "C=C1C(=O)O[C@H]2/C=C(/C)[C@H](O)C[C@H](O)C(=C)C[C@H](OC(=O)/C(C)=C\C)[C@@H]12" , thanks.
2.94

Assign log10 of IC50 to the following record: "C=C1C(=O)O[C@H]2/C=C(/C)[C@@H](O)C/C=C(\C=O)C[C@H](OC(=O)/C(C)=C\C)[C@@H]12"
2.60

Look up and report measured log10 of IC50 for this entry: "C=C1C(=O)O[C@@H](/C=C(\C)C=O)[C@@H]1[C@H](/C=C(/C)C(C)=O)OC(=O)/C(C)=C\C"
3.08
